The reader will find reported Plant response rating, Kochia values listed item by item below.
test system: kochia; assay: Test C pre-/postemergence herbicide test; assay type: in vivo, Kochia scoparia; conditions: 125 g ai/ha; scale 0 (no effect) to 100 (complete control); visual, 12 to 14 days; preemergence
measurementType: Plant response rating, Kochia

{"compound": "CCn1nc(C(C)(C)C)cc1C(=O)Nc1cccc(C(=O)NCC(C)C)c1", "measurementType": "Plant response rating, Kochia", "numericResult": 100}
{"compound": "C=CCn1nc(C(C)(C)C)cc1C(=O)Nc1cccc(C(=O)NCC)c1", "measurementType": "Plant response rating, Kochia", "numericResult": 90}
{"compound": "CCc1nc(C(C)(C)C)sc1C(=O)Nc1cccc(C(=O)NCC2CC2)c1", "measurementType": "Plant response rating, Kochia", "numericResult": 85}
{"compound": "CCCCOc1cccc(NC(=O)c2cc(C(C)(C)C)nn2CC)c1", "measurementType": "Plant response rating, Kochia", "numericResult": 90}
{"compound": "CCN(CC)C(=O)c1ccnc(NC(=O)c2cc(C(C)(C)C)nn2CC)c1", "measurementType": "Plant response rating, Kochia", "numericResult": 95}

###

system: Surinam grass; assay: Test B pre-/postemergence herbicide test; type: in vivo, Urochloa decumbens; details: preemergence, 125 g ai/ha; 0 to 100 scale, 0 is no effect, 100 is complete control
The reader will find reported Plant response rating, Surinam Grass values listed item by item below.

{"compound": "CCN(CC)C(=O)c1cccc(NC(=O)c2cc(C(C)(C)C)nn2CCF)c1 [Compound 36]", "tgt": "Surinam grass", "Plant response rating, Surinam Grass": 10}
{"compound": "CCn1nc(C(C)(C)C)cc1C(=O)Nc1cccc(C(=O)N(C)C)c1 [Compound 49]", "tgt": "Surinam grass", "Plant response rating, Surinam Grass": 10}
{"compound": "CC(C)(C)c1cc(C(=O)Nc2cccc(SC(F)(F)F)c2)n(CCF)n1 [Compound 132]", "tgt": "Surinam grass", "Plant response rating, Surinam Grass": 40}
{"compound": "CCNC(=O)c1cccc(NC(=O)c2cc(C(C)(C)C)nn2CC)n1 [Compound 144]", "tgt": "Surinam grass", "Plant response rating, Surinam Grass": 60}
{"compound": "CCOC(=O)c1ccnc(NC(=O)c2cc(C(C)(C)C)nn2CC)c1 [Compound 157]", "tgt": "Surinam grass", "Plant response rating, Surinam Grass": 0}
{"compound": "CCCn1nc(C(C)(C)C)cc1C(=O)Nc1cccc(C(C)=NO)c1 [Compound 113]", "tgt": "Surinam grass", "Plant response rating, Surinam Grass": 10}
{"compound": "C#CCNC(=O)c1cccc(NC(=O)c2cc(C(C)(C)C)nn2CC)n1 [Compound 147]", "tgt": "Surinam grass", "Plant response rating, Surinam Grass": 20}
{"compound": "CCn1nc(C(C)(C)C)cc1C(=O)Nc1ccc(OC)c(C(=O)OC(C)C)c1 [Compound 101]", "tgt": "Surinam grass", "Plant response rating, Surinam Grass": 10}
{"compound": "CCOC(=O)c1cc(NC(=O)c2cc(C(C)(C)C)nn2CC)ccc1F [Compound 89]", "tgt": "Surinam grass", "Plant response rating, Surinam Grass": 0}

###

The reader will find reported Plant response rating, Sedge, Umbrella values listed item by item below.
tested on: smallflower umbrella sedge; assay: Test C flooded paddy test; assay type: in vivo, Cyperus difformis; details: 500 g ai/ha, visual rating after 12 to 14 days, scale 0 to 100 (0 no effect, 100 complete control)
measurementType: Plant response rating, Sedge, Umbrella

{"compound": "CCn1nc(C(C)(C)C)cc1C(=O)Nc1cccc(C(=O)NCCF)c1", "result": 80}
{"compound": "CCNC(=O)c1ccc(F)c(NC(=O)c2sc(C(C)(C)C)nc2CC)c1", "result": 70}
{"compound": "CCn1nc(C(C)(C)C)cc1C(=O)Nc1cccc(C(=O)NC(C)C)c1", "result": 80}
{"compound": "CCNC(=O)c1cccc(NC(=O)c2cc(C(C)(C)C)nn2CC)n1", "result": 90}
{"compound": "CCn1nc(C(C)(C)C)cc1C(=O)Nc1cccc(C(C)=O)c1", "result": 80}

###

tested on: lambsquarters; experiment: Test B pre-/postemergence herbicide test; assay type: in vivo, Chenopodium album; details: preemergence, 125 g ai/ha; 0 to 100 scale, 0 is no effect, 100 is complete control
The reader will find reported Plant response rating, Lambsquarters values listed item by item below.
measurementType: Plant response rating, Lambsquarters

{"molecule": "CON=C(C)c1cccc(NC(=O)c2cc(C(C)(C)C)nn2C)c1 [Compound 106]", "numericResult": 0}
{"molecule": "CCn1nc(C(C)(C)C)cc1C(=O)Nc1cccc(OCCCF)c1 [Compound 138]", "numericResult": 0}
{"molecule": "CCOC(=O)c1cc(NC(=O)c2cc(C(C)(C)C)nn2CC)ccc1OCC [Compound 95]", "numericResult": 100}
{"molecule": "CC(=NO)c1cccc(NC(=O)c2cc(C(C)(C)C)nn2C)c1 [Compound 107]", "numericResult": 0}
{"molecule": "CC(=O)c1cccc(NC(=O)c2cc(C(C)(C)C)nn2CCF)c1 [Compound 128]", "numericResult": 0}
{"molecule": "Cn1nc(C(C)(C)C)cc1C(=O)Nc1cccc(C#N)c1 [Compound 121]", "numericResult": 70}
{"molecule": "CCn1nc(C(C)(C)C)cc1C(=O)Nc1cccc(C(C)=O)c1 [Compound 122]", "numericResult": 80}
{"molecule": "CCOC(=O)c1cc(NC(=O)c2cc(C(C)(C)C)nn2CC)ccc1F [Compound 89]", "numericResult": 0}
{"molecule": "C#CCNC(=O)c1cccc(NC(=O)c2cc(C(C)(C)C)nn2CC)n1 [Compound 147]", "numericResult": 90}

###

The reader will find reported Foxtail, Giant plant response rating values listed item by item below.
tested on: giant foxtail; test: Test A pre-/postemergence herbicide test; assay type: in vivo, Setaria faberi; details: Preemergence, 500 g ai/ha; visual rating, 0 to 100 scale (0 no effect, 100 complete control)
measurementType: Foxtail, Giant plant response rating

{"molecule": "CCNC(=O)c1cccc(NC(=O)c2cc(C(C)(C)C)nn2CCF)c1 [Compound 35]", "result": 80}
{"molecule": "CCOc1cccc(NC(=O)c2cc(C(C)(C)C)nn2CC)c1 [Compound 136]", "result": 60}
{"molecule": "CC(=O)c1cccc(NC(=O)c2cc(C(C)(C)C)nn2CCF)c1 [Compound 128]", "result": 15}
{"molecule": "C#CCNC(=O)c1cccc(NC(=O)c2cc(C(C)(C)C)nn2CC)n1 [Compound 147]", "result": 60}
{"molecule": "CN1Cc2c(NC(=O)c3cc(C(C)(C)C)nn3C)cccc2C1=O [Compound 54]", "result": 0}

###

test system: smallflower umbrella sedge; experiment: Test C flooded paddy test; assay type: in vivo, Cyperus difformis; conditions: 125 g ai/ha, scale of 0 to 100, 0 is no effect, 100 is complete control

{"compound": "CCN1CCc2c(NC(=O)c3cc(C(C)(C)C)nn3CC)cccc2C1=O", "Sedge, Umbrella plant response rating": 70}
{"compound": "CCn1nc(C(C)(C)C)cc1C(=O)Nc1cccc(C(=O)NCC2CC2)c1", "Sedge, Umbrella plant response rating": 60}
{"compound": "CCn1nc(C(C)(C)C)cc1C(=O)Nc1cccc(C(=O)NC(C)C)c1", "Sedge, Umbrella plant response rating": 50}
{"compound": "CCNC(=O)c1cccc(NC(=O)c2cc(C(C)(C)C)nn2CC(F)(F)F)c1", "Sedge, Umbrella plant response rating": 35}
{"compound": "CCn1nc(C(C)(C)C)cc1C(=O)Nc1cccc(C(=O)NCCF)c1", "Sedge, Umbrella plant response rating": 60}
{"compound": "CCn1nc(C(C)(C)C)cc1C(=O)Nc1cccc(C(C)=O)c1", "Sedge, Umbrella plant response rating": 60}
{"compound": "CCOC(=O)c1cc(NC(=O)c2cc(C(C)(C)C)nn2CC)ccc1OCC", "Sedge, Umbrella plant response rating": 90}

###

test system: corn; assay: Test B pre-/postemergence herbicide test; format: in vivo, Zea mays; conditions: preemergence, 125 g ai/ha; 0 to 100 scale, 0 is no effect, 100 is complete control
The reader will find reported Plant response rating, Corn values listed item by item below.
measurementType: Plant response rating, Corn

{"compound": "CCOC(=O)c1ccnc(NC(=O)c2cc(C(C)(C)C)nn2CC)c1", "measurementType": "Plant response rating, Corn", "numericResult": 0}
{"compound": "CCn1nc(C(C)(C)C)cc1C(=O)Nc1cc(C(=O)OC(C)(C)C)ccc1F", "measurementType": "Plant response rating, Corn", "numericResult": 0}
{"compound": "CCn1nc(C(C)(C)C)cc1C(=O)Nc1cc(C(=O)NCC2CC2)ccn1", "measurementType": "Plant response rating, Corn", "numericResult": 0}
{"compound": "CCOc1cccc(NC(=O)c2cc(C(C)(C)C)nn2CC)c1", "measurementType": "Plant response rating, Corn", "numericResult": 10}
{"compound": "CCNC(=O)c1cccc(NC(=O)c2cc(C(C)(C)C)nn2CC)n1", "measurementType": "Plant response rating, Corn", "numericResult": 10}
{"compound": "CCn1nc(C(C)(C)C)cc1C(=O)Nc1cccc(OCCCF)c1", "measurementType": "Plant response rating, Corn", "numericResult": 0}
{"compound": "CCOC(=O)c1cc(NC(=O)c2cc(C(C)(C)C)nn2CC)c(F)cc1OC", "measurementType": "Plant response rating, Corn", "numericResult": 30}
{"compound": "CCCn1nc(C(C)(C)C)cc1C(=O)Nc1cccc(C(C)=NO)c1", "measurementType": "Plant response rating, Corn", "numericResult": 0}
{"compound": "CCN(CC)C(=O)c1ccnc(NC(=O)c2cc(C(C)(C)C)nn2CC)c1", "measurementType": "Plant response rating, Corn", "numericResult": 0}

Ref: patent US20060069132A1
